// reported concentration at which responses failed to saturate per item
- systemUnderTest: RDLbdI/V (Drosophila melanogaster, UniProt P25123, I283V)
- Sequence (P25123 45-606 I283V): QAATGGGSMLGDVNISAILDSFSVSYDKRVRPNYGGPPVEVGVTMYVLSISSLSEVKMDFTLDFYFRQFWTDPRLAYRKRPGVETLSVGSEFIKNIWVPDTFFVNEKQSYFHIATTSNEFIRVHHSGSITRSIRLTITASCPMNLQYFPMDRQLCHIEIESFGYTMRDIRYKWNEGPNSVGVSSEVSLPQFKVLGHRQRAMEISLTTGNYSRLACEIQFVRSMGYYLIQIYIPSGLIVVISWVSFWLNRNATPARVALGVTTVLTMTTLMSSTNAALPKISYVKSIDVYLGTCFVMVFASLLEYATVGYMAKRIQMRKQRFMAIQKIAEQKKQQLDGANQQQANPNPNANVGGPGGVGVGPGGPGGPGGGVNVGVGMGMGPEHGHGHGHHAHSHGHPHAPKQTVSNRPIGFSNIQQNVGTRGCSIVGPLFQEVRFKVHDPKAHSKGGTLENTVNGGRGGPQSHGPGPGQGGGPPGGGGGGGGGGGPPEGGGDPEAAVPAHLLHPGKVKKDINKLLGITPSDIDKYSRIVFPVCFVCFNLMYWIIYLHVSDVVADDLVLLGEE
- testDetails: cell-based
- assayConditions: highest concentration usable; TACA, muscimol, β-alanine insoluble at higher concentrations
measuredQuantity: concentration at which responses failed to saturate (mM)

[
  {
    "molecule": "NCCC(=O)O",
    "unitsLabel": "mM",
    "reading": 10
  },
  {
    "molecule": "NCc1cc(=O)[nH]o1",
    "unitsLabel": "mM",
    "reading": 3
  },
  {
    "molecule": "NC/C=C/C(=O)O [TACA, trans-4-aminocrotonic acid]",
    "unitsLabel": "mM",
    "reading": 6
  },
  {
    "molecule": "O=C(O)C1=CCNCC1",
    "unitsLabel": "mM",
    "reading": 3
  }
]
